Tested on: P388 leukemia ip, CD2F1 mice, survival T/C
Assay: NCI In Vivo Anticancer Drug Screen. Data for tumor model P388 Leukemia (intraperitoneal) in CD2F1 (CDF1) mice
Conditions: endpoint: median survival time; dose: 400.0 mg/kg/injection; schedule: Q04DX003 (ip); vehicle: saline with Tween-80; higher = longer survival
Description: The antitumor activity of compounds was measured in mice bearing transplantable tumors. Survival or tumor size were measured and the results are expressed as the measurement made in the treated group (T) divided by the measurement made in the vehicle treated control group (C). The tumor model used in this assay is P388 Leukemia (intraperitoneal) in CD2F1 (CDF1) mice
Toxic doses and inconclusive results are not listed.
Answer each item with its documented T/C.

Reference set, count: 5
molecule | test-system | T/C
O=C1CCC(n2cc(F)c(=O)[nH]c2=O)O1 (stereo not given) | P388 leukemia ip, CD2F1 mice, survival T/C | 103 % of control
O=[N+]([O-])c1cccnc1Sc1ncccn1 | P388 leukemia ip, CD2F1 mice, survival T/C | 100 % of control
COc1cccc2c1C(=O)c1c(O)c3c(c(O)c1C2=N)C[C@@](O)(C(C)=O)CC3OC1CC(N(Cc2ccccc2)Cc2ccccc2)C(O)C(C)O1 (stereo not given in full) | P388 leukemia ip, CD2F1 mice, survival T/C | 106 % of control
CCCCCCCC/C=C\CCCCCCCCN1CN=C(N)N(C#N)C1 | P388 leukemia ip, CD2F1 mice, survival T/C | 103 % of control
CC(=O)Nc1nc2c(=O)[nH]c(N)nc2n1C1OC(COC(C)=O)C(OC(C)=O)C1OC(C)=O (stereo not given) | P388 leukemia ip, CD2F1 mice, survival T/C | 102 % of control

Please state, for each entry, its recorded T/C.
1. O=C1C=C(Nc2ccccc2)CCC1
2. Cc1cc(-c2ccccc2)c2ccccc2c1N(CC(=O)O)S(=O)(=O)c1ccccc1
3. Cc1ccc2c(c1Oc1ccc(S(N)(=O)=O)cc1)C(=O)c1ccccc1C2=O

["105 % of control", "90 % of control", "95 % of control"]

Please state, for each entry, its recorded T/C.
1. COc1cc2c(cc1OC(C)=O)C=CCCC2=O
2. COC(=O)C1=C(C(=O)OC)C2C=CC1C(=O)N2/C=C/c1ccccc1 (stereo not given)

105 % of control
117 % of control
